target: UniProtKB Q9H237; experiment: Inhibition of porcupine in human HEK293 cells assessed as reduction in Wnt secretion by measuring suppression of beta-catenin reporter activity after 24 hrs by STF reporter assay; assay type: cell-based
reported metric: IC50 (µM)
The figure you give is taken to be in µM; do not add the unit.

Can you look up the measured IC50 of C[C@H](C(=O)Nc1ccc(-c2ccsc2)cc1)n1cnc2c1c(=O)n(C)c(=O)n2C for me?
5.4

* * *

# pIC50 values compiled below
target: Protein-serine O-palmitoleoyltransferase porcupine (Homo sapiens, UniProt Q9H237); assay: Inhibition of porcupine activity (unknown origin) expressed in human HT1080 cells assessed as suppression of Wnt3A-mediated super top flash activity by STF luciferase assay; assay type: cell-based, HT-1080
Sequence (Q9H237 whole entry): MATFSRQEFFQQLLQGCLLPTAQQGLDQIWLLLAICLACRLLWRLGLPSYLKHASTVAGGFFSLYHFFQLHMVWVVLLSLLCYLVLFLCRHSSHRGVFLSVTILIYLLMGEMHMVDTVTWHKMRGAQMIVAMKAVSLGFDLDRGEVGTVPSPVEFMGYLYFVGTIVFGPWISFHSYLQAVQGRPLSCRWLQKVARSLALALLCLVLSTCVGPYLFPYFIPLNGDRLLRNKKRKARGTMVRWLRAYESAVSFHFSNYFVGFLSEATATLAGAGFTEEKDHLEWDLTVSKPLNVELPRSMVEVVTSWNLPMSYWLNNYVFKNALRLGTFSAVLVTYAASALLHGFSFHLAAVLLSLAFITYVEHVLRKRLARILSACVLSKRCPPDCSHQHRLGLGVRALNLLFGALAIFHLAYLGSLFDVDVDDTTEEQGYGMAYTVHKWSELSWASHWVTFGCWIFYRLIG
Note on units: pIC50 is unitless, being -log10 of a concentration expressed in mol/L.

# structure as smiles, reported metric, reported
data = [
    ("Cc1cc(-c2ccc(CC(=O)Nc3ccc(-c4cccnc4)cc3)cc2)ccn1", "pIC50", 10.13),
]

# input for lookup
Provide value of pIC50 for this record tested with Protein-serine O-palmitoleoyltransferase porcupine (Homo sapiens, UniProt Q9H237): COc1ccc(-n2nc(C(=O)NCC(=O)Nc3nc4ccc(OC)cc4s3)c3ccccc3c2=O)cc1
7.22
